test: solvent given as SMILES; settings: in C1CCC2CCCCC2C1
READOUT KIND: solvation free energy, 298 K (kcal/mol)
Give a bare numeral; the unit kcal/mol is implied.

solvation free energy, 298 K for C=CC=C ? -2.17

Try the molecule C1=CCC=CC1 -4.4

Try the molecule C#CCCCC -3.68

Try the molecule CC(C)C -2

Try the molecule C1=CCCC=C1 -4.14

Try the molecule CCCC -2.25

Try the molecule CCC -1.52

Try the molecule C=CCCCC -3.67

* * *

For each record, write down the corresponding solvation free energy, 298 K.
assay: solvent given as SMILES; conditions: in NCCO
Give a bare numeral; the unit kcal/mol is implied.

solvation free energy, 298 K for C=CCCCC ? -1.17

Try the compound C#CCCCC -2.4

Try the compound C#CCCCCCC -3.17

Try the compound C=CCCCCCC -2.07

Try the compound Cc1cccc(C)c1 -3.85

* * *

assay: solvent given as SMILES; details: in CCCCC
Label class 1 when solvation free energy, 298 K is strictly below -2 kcal/mol; otherwise label class 0.

solvation free energy, 298 K under -2 kcal/mol? Item: CCC1CCCCC1 class 1

Try the compound CC(C)C class 1

Try the compound CCCC class 1

Try the compound C1COCCO1 class 1

Try the compound CCC class 0

Try the compound O class 0

* * *

For each record, write down the corresponding solvation free energy, 298 K.
assay: solvent given as SMILES; details: in O=Cc1ccco1
Give a bare numeral; the unit kcal/mol is implied.

solvation free energy, 298 K for c1ccc2c(c1)CCCC2 ? -7.02

Try the molecule CCC1CCCCC1 -3.95

Try the molecule C#CCCCC -3.57

Try the molecule C=CCCCC -2.62

* * *

experiment: solvent given as SMILES; settings: in CCCCN(C=O)CCCC
READOUT KIND: solvation free energy, 298 K (kcal/mol)
Give a bare numeral; the unit kcal/mol is implied.

solvation free energy, 298 K for CCOC(C)(C)C ? -3.6

Try the compound C1COCCO1 -4.58

Try the compound ClC=C(Cl)Cl -4.62

Try the compound CCCOC(C)=O -4.56

Try the compound CC1CCCCC1 -4.05

Try the compound C=CCO -5.42

Try the compound ClC(Cl)Cl -4.83

Try the compound COC(C)(C)C -3.34

Try the compound CC(C)O -4.71

* * *

assay: solvent given as SMILES; settings: in O
For each record, write down the corresponding solvation free energy, 298 K.
Give a bare numeral; the unit kcal/mol is implied.

solvation free energy, 298 K for ClCCCCCl ? -2.32

Try the compound C=C1CCC2C(C)CCC3C(C12)C3(C)C (stereo not drawn) 0.42

Try the compound Cc1cc2ccccc2cc1C -2.72

Try the compound CC1=CC(=O)CC(C)(C)C1 -5.18

Try the compound Cc1c(C(=O)O)cc([N+](=O)[O-])cc1[N+](=O)[O-] -13.6

Try the compound FC(F)(F)Br 1.79

Try the compound CC(C)c1ccc2c(c1)CCC1C(C)(C)CCCC21C (stereo not drawn) -0.37

Try the compound CCCCCC(=O)OCC -2.24

* * *

test: solvent given as SMILES; conditions: in CC(C)OC(C)C
For each record, write down the corresponding solvation free energy, 298 K.
Give a bare numeral; the unit kcal/mol is implied.

solvation free energy, 298 K for C1COCCO1 ? -4.39

Try the molecule CCCCCl -4.21

Try the molecule O=C1c2ccccc2-c2ccccc21 -10.5

Try the molecule CCC1CCCCC1 -5.26

* * *

assay: solvent given as SMILES; conditions: in CCCCCCO
Label t when solvation free energy, 298 K is strictly below -10 kcal/mol; otherwise label f.

solvation free energy, 298 K under -10 kcal/mol? Item: O=C(O)c1ccc(O)cc1 t

Try the compound c1ccc2c(c1)Cc1ccccc1-2 f

Try the compound O=C1c2ccccc2-c2ccccc21 t

Try the compound O=C(O)c1ccccc1 f

Try the compound Cc1ccc2cc(C)ccc2c1 f

Try the compound CCCCCCCCCCCCCCCCO t

Try the compound Cc1c(C(=O)O)cc([N+](=O)[O-])cc1[N+](=O)[O-] t

Try the compound COc1ccccc1C(=O)O t

Try the compound NC(N)=S f

Try the compound COC(C)(C)C f

Try the compound [HH] f

Try the compound O=C(c1ccccc1)C(O)c1ccccc1 (centres undefined) t

Try the compound CCCCCCCCCCCCCCO t

Try the compound CCCCCCCCO f

Try the compound CCCCCCCCCCCCCCCCCCCCO t

Try the compound COc1ccc2cc(C(C)C(=O)O)ccc2c1 (centres undefined) t

* * *

assay: solvent given as SMILES; conditions: in Cc1ccccc1
READOUT KIND: solvation free energy, 298 K (kcal/mol)
Give a bare numeral; the unit kcal/mol is implied.

solvation free energy, 298 K for O=C(c1ccccc1)C(O)c1ccccc1 (stereo not given) ? -15.2

Try the compound [HH] 1.62

Try the compound CCN(CC)CC -4.66

Try the compound C1COCCO1 -4.91

Try the compound CCC1CCCCC1 -5.37

* * *

For each record, write down the corresponding solvation free energy, 298 K.
assay: solvent given as SMILES; details: in CC1COC(=O)O1
Give a bare numeral; the unit kcal/mol is implied.

solvation free energy, 298 K for CCCC ? -1.19

Try the molecule O=C=S -1.15

Try the molecule CCN(CC)CC -2.89

Try the molecule CC(C)C -0.87

Try the molecule C=CC(=C)C -2.45

Try the molecule C1COCCO1 -4.98

Try the molecule CCC1CCCCC1 -3.41

Try the molecule CCC -0.58

Try the molecule C=CC=C -1.97

Try the molecule [HH] 2.04

* * *

experiment: solvent given as SMILES; settings: in ClCCl
READOUT KIND: solvation free energy, 298 K (kcal/mol)
Give a bare numeral; the unit kcal/mol is implied.

solvation free energy, 298 K for C=CC=C ? -2.83

Try the compound [HH] 1.57

Try the compound CCC1CCCCC1 -5.2

Try the compound CCCCCCCCCCCCCCCCCCCCCCCCCCCC -18.6

Try the compound O=C1c2ccccc2-c2ccccc21 -12

Try the compound CCN(CC)CC -4.98

* * *

For each record, write down the corresponding solvation free energy, 298 K.
test: solvent given as SMILES; conditions: in CCCCCCCCO
Give a bare numeral; the unit kcal/mol is implied.

solvation free energy, 298 K for ClC(Cl)C(Cl)Cl ? -5.84

Try the compound CCCl -2.32

Try the compound O=C(c1ccccc1)C(O)c1ccccc1 (centres undefined) -14.6

Try the compound CCCCBr -4.22

Try the compound O=C(O)c1ccccc1O -10.2

Try the compound CCOC=O -2.98

Try the compound FC(C(F)(F)F)C(F)(F)F -1.12

Try the compound Clc1ccc(-c2ccc(Cl)cc2)cc1 -10.7

Try the compound CC(=O)OCCC(C)C -5.34

Try the compound Cc1cccc(C)c1 -5.16

Try the compound Clc1ccc(-c2ccccc2Cl)cc1 -10

Try the compound CC(Cl)Cl -3.29

Try the compound [H][H] 1.76

Try the compound C(=Cc1ccccc1)c1ccccc1 -10.2

Try the compound O -4.15

Try the compound c1ccc2c(c1)ccc1ccccc12 -10.3

Try the compound Clc1ccc(-c2ccc(Cl)c(Cl)c2Cl)cc1Cl -12.9

Try the compound CCCCCCCCCCCCCCCCO -13.5

Try the compound CC(F)(F)Cl -1.62

Try the compound CCOc1ccc(NC(C)=O)cc1 -13.1

Try the compound FCC(F)(F)F -0.89

Try the compound C=CCCCCCC -4.58

Try the compound FC(F)(Cl)C(F)(F)Cl -1.61

Try the compound COC(C)(C)C -3.52

Try the compound CCOC(C)(C)C -3.67

Try the compound c1ccc2c(c1)Cc1ccccc1-2 -9.32

Try the compound FC(F)F -0.21

Try the compound CCCC(C)=O -4.35

Try the compound CCC1CCCCC1 -4.84

Try the compound O=C1CCCC1 -5.02

Try the compound C=CCCCC -3.29

Try the compound c1ccc(CCc2ccccc2)cc1 -8.8

Try the compound CCOC(=O)CC -4.3

Try the compound CCCCCCCCCCCCCCCCCCCCO -16.4

Try the compound CC(C)O -4.61

Try the compound CCCCCCOC(C)=O -6.26

Try the compound CCCCCl -3.71

Try the compound CC(C)COCC(C)C -4.62

Try the compound Clc1cc(-c2ccccc2)c(Cl)c(Cl)c1Cl -11.7
